Ref: patent US20100260765A1

target.or.system: human KDR (VEGFR2) on cells (human, UniProt P35968 20-1356); also: test concentration or dose not given here
Sequence (P35968 20-1356): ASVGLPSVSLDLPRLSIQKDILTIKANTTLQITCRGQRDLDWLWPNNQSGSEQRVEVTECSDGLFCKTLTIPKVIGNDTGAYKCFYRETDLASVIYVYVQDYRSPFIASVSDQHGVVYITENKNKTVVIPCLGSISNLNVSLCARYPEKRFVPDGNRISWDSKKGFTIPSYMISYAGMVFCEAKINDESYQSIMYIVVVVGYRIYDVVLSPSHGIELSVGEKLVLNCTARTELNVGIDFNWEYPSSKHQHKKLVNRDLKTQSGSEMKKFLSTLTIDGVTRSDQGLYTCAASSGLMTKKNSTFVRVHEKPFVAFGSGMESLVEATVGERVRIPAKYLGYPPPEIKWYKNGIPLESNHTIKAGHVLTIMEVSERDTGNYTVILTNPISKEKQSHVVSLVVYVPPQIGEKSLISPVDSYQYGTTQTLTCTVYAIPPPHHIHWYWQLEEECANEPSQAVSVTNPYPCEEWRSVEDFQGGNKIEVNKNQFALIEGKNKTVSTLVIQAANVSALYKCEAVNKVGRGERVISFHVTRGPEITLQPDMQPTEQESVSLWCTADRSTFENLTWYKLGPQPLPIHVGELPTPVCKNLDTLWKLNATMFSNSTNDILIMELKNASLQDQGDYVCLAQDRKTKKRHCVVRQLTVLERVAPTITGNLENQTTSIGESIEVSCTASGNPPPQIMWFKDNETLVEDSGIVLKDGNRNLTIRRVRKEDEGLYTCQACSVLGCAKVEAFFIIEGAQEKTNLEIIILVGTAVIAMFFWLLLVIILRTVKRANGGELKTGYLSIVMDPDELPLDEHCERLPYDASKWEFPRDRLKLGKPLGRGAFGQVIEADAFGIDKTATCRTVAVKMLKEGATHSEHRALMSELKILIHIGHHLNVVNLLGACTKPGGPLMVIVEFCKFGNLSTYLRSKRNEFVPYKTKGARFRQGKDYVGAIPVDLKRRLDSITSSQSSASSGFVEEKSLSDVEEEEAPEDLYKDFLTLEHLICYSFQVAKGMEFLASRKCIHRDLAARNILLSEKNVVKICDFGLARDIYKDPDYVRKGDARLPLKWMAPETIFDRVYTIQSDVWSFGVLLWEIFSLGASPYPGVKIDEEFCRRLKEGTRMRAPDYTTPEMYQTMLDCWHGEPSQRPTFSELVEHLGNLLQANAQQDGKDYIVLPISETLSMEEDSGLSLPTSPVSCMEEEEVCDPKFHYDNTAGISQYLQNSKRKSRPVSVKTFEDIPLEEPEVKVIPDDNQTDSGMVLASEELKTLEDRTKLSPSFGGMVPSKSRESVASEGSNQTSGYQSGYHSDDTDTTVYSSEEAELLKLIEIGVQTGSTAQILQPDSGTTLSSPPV
method.notes: cell-based or functional assay
experimental.endpoint: % Inhibition of VEGF165-mediated pTyr Activity, n = 1 (%)

{"binder": "anti-KDR monoclonal antibody 21H9 (antibody, V domains shown, Fully human mAb from XenoMouse (IgG2 or IgG4 strain); hybridoma supernatant) VH: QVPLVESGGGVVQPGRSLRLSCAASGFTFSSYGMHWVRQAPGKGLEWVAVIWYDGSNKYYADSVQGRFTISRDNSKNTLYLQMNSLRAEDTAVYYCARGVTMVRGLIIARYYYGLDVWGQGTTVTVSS VL: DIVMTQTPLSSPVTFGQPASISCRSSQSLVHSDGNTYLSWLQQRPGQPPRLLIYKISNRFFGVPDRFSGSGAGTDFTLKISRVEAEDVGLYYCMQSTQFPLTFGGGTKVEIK", "value.measured": 80}
{"binder": "anti-KDR monoclonal antibody 21A1 (antibody, V domains shown, Fully human mAb from XenoMouse (IgG2 or IgG4 strain); hybridoma supernatant) VH: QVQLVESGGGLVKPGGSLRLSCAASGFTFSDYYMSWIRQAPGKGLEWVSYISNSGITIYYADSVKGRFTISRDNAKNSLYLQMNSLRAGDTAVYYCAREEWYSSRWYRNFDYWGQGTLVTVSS VL: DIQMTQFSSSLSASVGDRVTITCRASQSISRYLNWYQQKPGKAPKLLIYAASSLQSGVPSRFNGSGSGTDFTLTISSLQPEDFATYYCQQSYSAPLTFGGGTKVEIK", "value.measured": 71}
